pEC50 values by entry
- assayed.system: T1, human ROR1 (full-length, on the cell surface) (human, UniProt Q01973 30-937)
- T1 construct: whole, on cells; the tumour cell lines carry their own ROR1; also called Ba/F3-ROR1 cells; Jeko-1
- T1 sequence (Q01973 30-937): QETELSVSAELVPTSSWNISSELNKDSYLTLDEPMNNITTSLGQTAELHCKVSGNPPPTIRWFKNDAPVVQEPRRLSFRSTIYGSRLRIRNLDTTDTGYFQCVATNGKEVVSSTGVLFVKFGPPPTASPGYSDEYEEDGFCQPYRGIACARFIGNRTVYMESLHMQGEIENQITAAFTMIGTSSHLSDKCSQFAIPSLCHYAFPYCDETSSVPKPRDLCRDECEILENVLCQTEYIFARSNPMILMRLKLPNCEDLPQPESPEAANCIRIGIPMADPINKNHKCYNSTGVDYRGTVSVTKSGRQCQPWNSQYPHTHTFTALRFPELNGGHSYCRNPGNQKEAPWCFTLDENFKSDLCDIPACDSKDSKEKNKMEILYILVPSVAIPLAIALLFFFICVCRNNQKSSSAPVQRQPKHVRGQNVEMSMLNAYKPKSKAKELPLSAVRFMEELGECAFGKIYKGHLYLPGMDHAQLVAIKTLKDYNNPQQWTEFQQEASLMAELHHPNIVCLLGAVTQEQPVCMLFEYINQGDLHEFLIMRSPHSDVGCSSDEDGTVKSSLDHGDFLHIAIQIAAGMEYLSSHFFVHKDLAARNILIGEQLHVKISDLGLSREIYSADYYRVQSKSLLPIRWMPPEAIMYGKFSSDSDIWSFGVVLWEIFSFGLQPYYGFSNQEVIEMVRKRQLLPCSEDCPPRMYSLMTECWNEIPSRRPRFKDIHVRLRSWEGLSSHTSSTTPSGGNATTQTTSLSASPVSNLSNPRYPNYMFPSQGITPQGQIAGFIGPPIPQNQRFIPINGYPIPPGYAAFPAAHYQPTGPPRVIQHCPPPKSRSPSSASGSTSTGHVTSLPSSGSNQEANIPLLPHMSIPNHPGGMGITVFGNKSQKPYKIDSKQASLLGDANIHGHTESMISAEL
- assay.procedure: flow cytometry, HT-29 cells
By convention, pEC50 is the negative base-10 log of a molar concentration.

Some binders with known pEC50 results, for comparison:
- binder: "3D8-Hu25 (antibody, human IgG1, kappa, V domains shown, humanized, human IgG1 / kappa) VH: EVQLVESGGGLVQPGGSLRLSCAASGFTFSSYAMSWVRQAPGKGLEWVASINSGGSTYYPDSVKGRFTISRDNAKNSLYLQMNSLRAEDTAVYYCARVNYYGYGDYAMDYWGQGTLVTVSS VL: DIQMTQSPSSLSASVGDRVTITCQASQDINSYLSWFQQKPGKAPKTLIYRANRLVTGVPSRFSGSGSGTDFTFTISSLQPEDIATYYCLQYDEFPYTFGGGTKLEIKR"
  pEC50: 9.64
- binder: "19F6-Hu15 (antibody, human IgG1, kappa, V domains shown, humanized, human IgG1 / kappa) VH: QVQLQESGPGLVKPSETLSLTCTVTGYSITSDYAWNWIRQPPGKGLEWMGYISYSGSIRYKPSLKDRITISRDTSKNQFSLKLSSVTAADTAVYYCARGEITYYFDYWGQGTLVTVSS VL: ETTLTQSPAFMSATPGDKVTISCKASTDIDDDMNWYQQKPGEPPKLIISEGNTLRPGIPPRFSSSGYGTDFTFTINNIESEDAADYYCLQSNDLPLTFGQGTKLEIKR"
  pEC50: 10.15

q: So what does the record say about pEC50 for 38F8-Hu38 (antibody, human IgG1, kappa, V domains shown, humanized, human IgG1 / kappa) VH: QVQLVESGGGLVKPGGSLRLSCAASGFTFSNYAMSWVRQAPGKGLEWVASISSGGPTYYADSVKGRFTISRDNAKNSLYLQMNSLRAEDTAVYYCARGYRYDVNWYFDVWGAGTMVTVSS VL: DIQMTQSPSSLSASVGDRVTITCQASQDINSYLTWFQQKPGKSPKTLIHRANRLVTGVPSRFSGSGSGTDYTFTISSLQPEDIAIYYCLQYDEFPYTFGGGTKVEIKR ?
a: 9.23
